- System: NCI/ADR-RES ovarian
- Test: NCI tumour cell line growth inhibition, 48 h
Quantity Measured: TGI

>  <Compound>
CC1(C)COC(c2ccccc2-c2ccccc2)=N1

>  <Target Desc>
NCI/ADR-RES ovarian

>  <Result>
> 100 µM

$$$$

Hi! Can you tell me TGI for each of these compounds?
1. O=c1c(Nc2ccccc2)cn(CCOc2ccccc2)c(=O)n1CCOc1ccccc1
2. O=C1C(=O)/C(=C/c2ccccc2)CCCCCC/C1=C/c1ccccc1
3. Cc1cccc(/C=N/NC(=S)Nc2ccc(Cl)cc2)n1
4. COc1ccc(C(c2ccc(OC)cc2)N2C(=O)CCC2C(=O)O)cc1 (stereo unspecified)
5. COC1=C(C)C(=O)N2[C@@H]1[C@H](c1ccccc1)OC21C=CC(=O)C=C1
6. CCOC(=O)c1c(Sc2ccc([N+](=O)[O-])cc2[N+](=O)[O-])nc2c3ccccc3ccn12
7. CCOC(=O)CNC(=O)C(CSCC1C(=O)Nc2ccccc21)NC(=O)CCC(N)C(=O)OCC (stereo unspecified)
8. COc1ccc(-c2cc(C(=O)N3N=C(c4ccc(N)cc4)CC3c3ccc(Cl)cc3)c3ccccc3n2)cc1 (stereo unspecified)

OUT:
> 100 µM
> 100 µM
26 µM
> 100 µM
> 47.4 µM
> 100 µM
3.02 µM
> 100 µM

// each listed compound needs a value for TGI
1. Clc1ccc(Cc2nc3cc(Cl)c(Cl)cc3n2CC2CCCN3CCCCC23)cc1Cl (stereo unspecified)
2. NCCC1([N+](=O)[O-])C=CN=CC1 (stereo unspecified)
3. CNc1ccccc1S(=O)(=O)c1ccccc1[N+](=O)[O-]
4. O=c1c(-c2ccccc2)c(SCCN2CCCC2)n(-c2ccccc2)c(=S)n1-c1ccccc1
5. CN(C)C1C(CO)OC(n2cnc3c(N)ncnc32)C1O (stereo unspecified)
6. CCOC(=O)C1CSCCSC1
7. CCC(=O)Nc1cccc(NC(=O)c2c(Cl)c(Cl)c(Cl)c(Cl)c2-c2nc3ccccc3[nH]2)c1

OUT:
1. 17.2 µM
2. > 100 µM
3. > 100 µM
4. > 100 µM
5. > 100 µM
6. > 100 µM
7. > 100 µM

---

- System: OVCAR-5 ovarian
- Test: NCI tumour cell line growth inhibition, 48 h
Quantity Measured: TGI

List the reported TGI of each compound below.
1. CC(=O)O[C@]1(C)CCC2C(C)C(=O)OC2C2C(C)[C@@H](O)CC21 (some centres undefined)
2. COc1cc(/C=C/[N+](=O)[O-])c([N+](=O)[O-])cc1OC
3. COC(=O)/C(C#N)=C1\CCC(OC)N1 (centres undefined)
4. CCCOc1ccc2sc(NC(=O)c3cc([N+](=O)[O-])cc([N+](=O)[O-])c3)nc2c1
5. CO[C@H]1/C=C/[C@@](C)(O)/C=C/C(=O)O[C@H](C)[C@@H](C)CC/C=C/1C
6. CC[C@@]1(O)C(=O)OCc2c1cc1n(c2=O)Cc2c-1nc1ccccc1c2/C=N/NC(=O)C[N+](C)(C)C

OUT:
1. > 100 µM
2. 3.98 µM
3. > 100 µM
4. > 100 µM
5. 39.2 µM
6. > 100 µM

// input: 3 compounds below; output: TGI for each
1. CCOC(=O)c1c(NNc2ccccc2)nc2ccccc2c1-c1ccccc1
2. COc1ccccc1N=NC(C(=O)c1ccccc1)C(=O)c1ccccc1
3. C#CC1(O)C(COP(=O)(O)OC(COCCCCCCCCCCCCCCCCCC)COP(=O)(O)OCC2OC(n3cc(C)c(=O)[nH]c3=O)CC2N=[N+]=[N-])OC(n2ccc(N)nc2=O)C1O (centres undefined)

OUT:
> 100 µM
71.5 µM
> 92.7 µM

---

Assignment: determine reported TGI for the given compounds.
- Test system: DU-145 prostate
- Test: NCI tumour cell line growth inhibition, 48 h

Below, each entry is followed by its recorded TGI result.
>  <Compound>
NC(N)=Nc1ccc(CC(N)C(=O)NCC(=O)C(CC(=O)O)c2ncc(NC(=O)C(F)(F)F)o2)cc1 (centres undefined)

>  <TGI>
> 25 µM

$$$$
>  <Compound>
O=C(C(=O)c1cc(-c2ccccc2)nc2ccc3ccccc3c12)c1ccccc1

>  <TGI>
> 100 µM

$$$$
>  <Compound>
CN(C)CCNc1c2c(c(NCCN(C)C)c3c(CN(C)C)c[nH]c13)C(=O)c1ccccc1C2=O

>  <TGI>
15.1 µM

$$$$

Answer for every listed entry: what is its TGI? The entries follow.
1. Cc1cccc(NS(=O)(=O)c2ccc3c(c2)OCCOCCOCCOCCO3)c1
2. CC1COC(c2cn[nH]c2C(N)=O)C1O (centres undefined)
3. C=CC(O)(CBr)CCC(Br)C(C)(C)Cl (centres undefined)
4. CCC(=O)Nc1cccc(NC(=O)c2c(Cl)c(Cl)c(Cl)c(Cl)c2-c2nc3ccccc3[nH]2)c1
5. Clc1ccc(N=C2c3ccccc3CN2c2ccc(Cl)cc2)cc1

OUT:
1: > 100 µM; 2: > 100 µM; 3: > 10 µM; 4: > 100 µM; 5: > 100 µM

# map each compound to its TGI
1. CC(=O)c1ccc(Nc2cc(-n3nnc4ccccc43)nc3ccccc23)cc1
2. NCCCNc1nc2ccccc2c2c(=O)c3cccc(F)c3sc12
3. COc1ccc(NC2C(=O)C3(C)CCC2C3(C)C)cc1 (centres undefined)

OUT:
1: 82 µM; 2: 2.53 µM; 3: > 100 µM

Record TGI for all entries; do not skip any.
1. C=C(C)[C@@H]1/C=C(/C(C)C)CC[C@@]2(C)OC2CC[C@H](C)CC1=O (some centres undefined)
2. COC(=O)C1=C(OC(=O)/C(=C/c2ccccc2)c2ccc([N+](=O)[O-])cc2)C(C(=O)OC)[C@@]2(O)[C@@H](C(=O)OC)[C@H](C)C[C@@H]1[C@@H]2C(=O)OC (some centres undefined)
3. OCc1cc2c([nH]c3ccccc32)c(C(O)CO)n1 (centres undefined)

OUT:
1. 36 µM
2. > 100 µM
3. > 100 µM

Give measured TGI for every item shown.
1. C#CC1(O)C(COP(=O)(O)OC(COCCCCCCCCCCCCCCCCCC)COP(=O)(O)OCC2OC(n3cc(C)c(=O)[nH]c3=O)CC2N=[N+]=[N-])OC(n2ccc(N)nc2=O)C1O (centres undefined)
2. CO[C@@H](C)Cn1c(=O)n(C)c2cnc3ccc(-c4cncc(C(C)(C)O)c4)cc3c21

OUT:
1: > 100 µM; 2: > 100 µM

Look up TGI for the entries below, preserving their order.
1. Cc1cn(CC2=NCC(O)CN2)c(=O)[nH]c1=O (centres undefined)
2. CC[C@@]1(O)C(=O)OCc2c1cc1n(c2=O)Cc2c-1nc1ccccc1c2/C=N/NC(=O)C[N+](C)(C)C
3. CN(C)CCCNc1nc2ccccc2c2c(=O)c3cc(F)ccc3sc12

OUT:
> 100 µM
22 µM
3.16 µM

---

What TGI was measured for each of the following?
- Test system: SK-MEL-2 melanoma
- Test: NCI tumour cell line growth inhibition, 48 h

The examples below pair each entry with its known result.
>  <Compound>
Oc1ccc(OCCOc2ccc(O)cc2)cc1

>  <TGI>
82.6 µM

$$$$
>  <Compound>
COc1cc(/C=C/c2cc(/C=C/c3ccc(O)c(OC)c3)n(C(=O)Cc3ccccc3)n2)ccc1O

>  <TGI>
2.51 µM

$$$$
>  <Compound>
C1C[OH+]CCNCC[OH+]CC[OH+]CCN1.O.[Cl-].[Pt+4]

>  <TGI>
> 100 µM

$$$$
>  <Compound>
CN1CCN(CCCNN)CC1

>  <TGI>
> 100 µM

$$$$
>  <Compound>
OCc1cc2c([nH]c3ccccc32)c(C(O)CO)n1 (configuration not stated)

>  <TGI>
> 100 µM

$$$$
>  <Compound>
O=C1c2ccc3c4ccc5c6c(ccc(c7ccc(c2c37)C(=O)N1CCN1CCCCC1)c64)C(=O)N(CCN1CCCCC1)C5=O

>  <TGI>
> 100 µM

$$$$

Could you now consider this next compound?
IN: Report TGI for COc1ccc(-c2cc(C(=O)N3N=C(c4ccc(N)cc4)CC3c3ccc(Cl)cc3)c3ccccc3n2)cc1 (configuration not stated) please.
OUT: > 100 µM

---

- System: SF-268 CNS
- Test: NCI tumour cell line growth inhibition, 48 h; in the data active = GI50 below about 0.43 µM; inactive = the rest
A correct response names exactly one class from TRUE = active, FALSE = inactive

>  <Smiles Representation>
O=C(/C=C/c1c(-c2ccccc2)[nH]c2ccccc12)S(=O)(=O)c1ccccc1

>  <Category Label>
FALSE

$$$$
>  <Smiles Representation>
COc1cc(Nc2ncc3c(C)nc(-c4cccc(C(F)(F)F)c4)n3n2)cc(OC)c1OC

>  <Category Label>
FALSE

$$$$
>  <Smiles Representation>
COc1cc(/C=C/[N+](=O)[O-])c([N+](=O)[O-])cc1OC

>  <Category Label>
FALSE

$$$$
>  <Smiles Representation>
Cn1c([N+](=O)[O-])cnc1/C=C1\Oc2ccc(Br)cc2C1=O

>  <Category Label>
TRUE

$$$$

IN: Given CN(C)CCCNc1nc2ccccc2c2c(=O)c3cc(F)ccc3sc12 , state the outcome it received in this test.
OUT: FALSE

IN: State the result this test recorded for CCN(Cc1cc(F)cc(F)c1)c1ccc(CO)c(Cl)c1 .
OUT: FALSE

IN: Assay outcome for CCOC(=O)c1cc(C(=O)c2cc(OC)cc(OC)c2)n2nc(C)ccc12 : what was it?
OUT: FALSE

IN: Per the records of this test, what outcome belongs to C1C[OH+]CCNCC[OH+]CC[OH+]CCN1.O.[Cl-].[Pt+4] ?
OUT: FALSE
